The measurements presented in this section are drawn from ChEMBL document CHEMBL1641515.

Molecular target: Phospholipase A2, membrane associated (Homo sapiens, UniProt P14555)
Sequence (P14555 whole entry): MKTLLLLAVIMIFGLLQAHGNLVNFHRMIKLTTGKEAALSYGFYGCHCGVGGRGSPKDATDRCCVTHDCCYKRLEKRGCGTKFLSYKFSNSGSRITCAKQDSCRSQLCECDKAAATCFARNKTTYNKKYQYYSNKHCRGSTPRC
pIC50: −log10 of the molar value.
Test readout: pIC50

Compound smiles | Target desc | pIC50
CCCCCCCCCCCCCCC(=O)C(=O)NCC(=O)O | Phospholipase A2, membrane associated (Homo sapiens, UniProt P14555) | 5.38
CCCCCCCCCCCCCCC(=O)C(=O)NCCC(=O)O | Phospholipase A2, membrane associated (Homo sapiens, UniProt P14555) | 5.25
